Target: T1, Human recombinant FAP captured on anti-FAP antibody (SPR) (human, UniProt Q12884 26-760)
T1 construct: whole entry of human FAP named; also called rhFAP
T1 sequence (Q12884 26-760 limits assumed): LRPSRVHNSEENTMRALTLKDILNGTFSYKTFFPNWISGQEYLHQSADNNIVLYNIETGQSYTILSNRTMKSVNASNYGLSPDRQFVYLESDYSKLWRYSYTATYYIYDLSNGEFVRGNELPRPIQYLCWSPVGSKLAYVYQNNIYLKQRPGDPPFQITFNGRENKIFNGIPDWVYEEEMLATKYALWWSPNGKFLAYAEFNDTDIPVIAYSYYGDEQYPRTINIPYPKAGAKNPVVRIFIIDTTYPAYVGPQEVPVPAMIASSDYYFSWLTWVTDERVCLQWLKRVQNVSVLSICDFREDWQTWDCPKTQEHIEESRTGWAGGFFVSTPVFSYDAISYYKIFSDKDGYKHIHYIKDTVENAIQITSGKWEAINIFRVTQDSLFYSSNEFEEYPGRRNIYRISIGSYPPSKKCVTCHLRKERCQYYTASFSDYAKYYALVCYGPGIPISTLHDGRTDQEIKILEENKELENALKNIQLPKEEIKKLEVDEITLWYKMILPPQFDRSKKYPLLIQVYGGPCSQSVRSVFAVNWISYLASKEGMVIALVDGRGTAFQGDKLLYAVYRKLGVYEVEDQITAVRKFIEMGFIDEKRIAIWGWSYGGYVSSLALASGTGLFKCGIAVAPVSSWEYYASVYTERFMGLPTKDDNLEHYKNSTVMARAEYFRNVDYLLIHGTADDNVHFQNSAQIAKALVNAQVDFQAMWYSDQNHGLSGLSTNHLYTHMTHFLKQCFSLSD
Assay: SPR (Biacore), rhFAP captured by anti-FAP antibody; pKD category A = >8.0
Numbered stars: 1 amine (or outer) side, 2 acyl side, 3 side chain; on linkers, the order of the positions; unused ones are H or OH. Bridge positions count the residues as written; N and C are the ends. Square brackets hold non-standard residues; d marks the D form. Primed or numbered codes have the meaning given here. * marks the point of attachment. TBMB(SCH2CH2NH-DOTA) = O=C(O)CN1CCN(CC(=O)O)CCN(CC(=O)NCCSCc2cc(C[*:1])cc(C[*:2])c2)CCN(CC(=O)O)CC1; 3MeBn = 3-Methylbenzylidene (m-xylylene thioether bridge from α,α′-dibromo-m-xylene); Ttds(4) = spacer between chelator and peptide, O=C(CCC(=O)[*:2])NCCCOCCOCCOCCCN[*:1]; N4Ac = 6-Carboxy-1,4,8,11-tetraazaundecane, an N4-chelator, NCCNCC(CNCCN)C(=O)*; nBu‑CAyl = n-butylaminocarbonyl, CCCCNC(=O)*; PPAc = 4-Carboxymethyl piperazine; Nle = CCCC[C@H](N)C(=O)O; βAla = NCCC(=O)O; Sar = CNCC(=O)O

binder	pKD
{nBu‑CAyl}-C[Sar]PTQFC-OH (linker 1-7 via TBMB(SCH2CH2NH-DOTA); SMILES CCCCNC(=O)N[C@H]1CSCc2cc(CSCCNC(=O)CN3CCN(CC(=O)O)CCN(CC(=O)O)CCN(CC(=O)O)CC3)cc(c2)CSC[C@@H](C(=O)O)NC(=O)[C@H](Cc2ccccc2)NC(=O)[C@H](CCC(N)=O)NC(=O)[C@H]([C@@H](C)O)NC(=O)[C@@H]2CCCN2C(=O)CN(C)C1=O, also called 3BP-4607) [nBu-CAyl-[Cys(tMeBn(DOTA-AET))-Nmg-Pro-Thr-Gln-Phe-Cys]-OH]	> 8 pkd
{nBu‑CAyl}-C[Sar]PTQFC-NH2 (linker 1-7 via TBMB(SCH2CH2NH-DOTA); SMILES CCCCNC(=O)N[C@H]1CSCc2cc(CSCCNC(=O)CN3CCN(CC(=O)O)CCN(CC(=O)O)CCN(CC(=O)O)CC3)cc(c2)CSC[C@@H](C(N)=O)NC(=O)[C@H](Cc2ccccc2)NC(=O)[C@H](CCC(N)=O)NC(=O)[C@H]([C@@H](C)O)NC(=O)[C@@H]2CCCN2C(=O)CN(C)C1=O, also called 3BP-4621) [nBu-CAyl-[Cys(tMeBn(DOTA-AET))-Nmg-Pro-Thr-Gln-Phe-Cys]-NH2]	> 8 pkd
{N4Ac-PPAc-Ttds(4)}-[Nle]CPPTEFC[βAla]-OH (linker 2-8 via 3MeBn, also called 3BP-4784) [N4Ac-PPAc-Ttds-Nle-[C(3MeBn)-PPTEFC]-Bal-OH]	> 8 pkd
{nBu‑CAyl}-CPPTEFC-OH (linker 1-7 via tMeBn(NOPO-AET), also called 3BP-4778) [nBu-CAyl-[C(tMeBn(NOPO-AET))-PPTEFC]-OH]	> 8 pkd
